Provide the recorded protein stability index for the entries that follow.
B1: SLC25A39 (parent)
chain: LTSDLYAPMVAGALARLGTVTVIS

variants of: B1; experiment: protein stability index of a GFP-peptide fusion (GPS, HEK-293T) (PSI 1-6); higher = more stable; details: c terminus: a fixed tail appended;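 further: lentivirally expressed fusions sorted by FACS into six bins by GFP to DsRed ratio, PSI derived from sequencing read proportions per bin multiplied by bin number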

Task: What value of measured protein stability index is listed for "S24N" ?
Result: 1.91

Task: What value of measured protein stability index is listed for "A11D" ?
Result: 1.65

Task: What value of measured protein stability index is listed for "L17V" ?
Result: 2.22

Task: What value of measured protein stability index is listed for "V10Y" ?
Result: 2.63

Task: What value of measured protein stability index is listed for "L5Q" ?
Result: 1.65

Task: What value of measured protein stability index is listed for "R16D" ?
Result: 2.58

Task: What value of measured protein stability index is listed for "A15R" ?
Result: 2.1

Task: What value of measured protein stability index is listed for "V22E" ?
Result: 2.08

Task: What value of measured protein stability index is listed for "S3D" ?
Result: 2.96

Task: What value of measured protein stability index is listed for "V10A" ?
Result: 3.92

Task: What value of measured protein stability index is listed for "L1E" ?
Result: 2.24

Task: What value of measured protein stability index is listed for "L5E" ?
Result: 1.69

Task: What value of measured protein stability index is listed for "A7P" ?
Result: 1.87

Task: What value of measured protein stability index is listed for "L1V" ?
Result: 1.88

Task: What value of measured protein stability index is listed for "A11M" ?
Result: 2.95

Task: What value of measured protein stability index is listed for "G12V" ?
Result: 3.9

Task: What value of measured protein stability index is listed for "P8I" ?
Result: 1.62

Task: What value of measured protein stability index is listed for "P8W" ?
Result: 2.68

Task: What value of measured protein stability index is listed for "L17Y" ?
Result: 2.12

Task: What value of measured protein stability index is listed for "V20N" ?
Result: 2.54

Task: What value of measured protein stability index is listed for "I23K" ?
Result: 2.04

Task: What value of measured protein stability index is listed for "G12Q" ?
Result: 4.46

Task: What value of measured protein stability index is listed for "V20S" ?
Result: 2.26

Task: What value of measured protein stability index is listed for "L17D" ?
Result: 2.47

Task: What value of measured protein stability index is listed for "V22S" ?
Result: 2.31

Task: What value of measured protein stability index is listed for "L14Q" ?
Result: 1.53

Task: What value of measured protein stability index is listed for "A15D" ?
Result: 1.93

Task: What value of measured protein stability index is listed for "V10R" ?
Result: 1.49

Task: What value of measured protein stability index is listed for "T21H" ?
Result: 2.26

Task: What value of measured protein stability index is listed for "L17T" ?
Result: 1.52

Task: What value of measured protein stability index is listed for "L17N" ?
Result: 1.96

Task: What value of measured protein stability index is listed for "V10W" ?
Result: 2.29

Task: What value of measured protein stability index is listed for "V10G" ?
Result: 2.72

Task: What value of measured protein stability index is listed for "I23Q" ?
Result: 2.56

Task: What value of measured protein stability index is listed for "Y6P" ?
Result: 1.98

Task: What value of measured protein stability index is listed for "A15K" ?
Result: 3.12
